# MEASURED_ON: T1, 4H575-bN
# T1 chain: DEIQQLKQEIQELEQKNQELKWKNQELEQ
# METHOD: two-hybrid library CCNG1;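 note: natural log of median RNA to DNA barcode read ratio; higher means stronger binding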

{"BINDER": "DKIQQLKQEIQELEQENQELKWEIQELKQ [4H2586-bN]", "interaction score": -1.1}
{"BINDER": "DKIQQLKQEIQELKQEIQELEWENQELEQ [4H2627-bN]", "interaction score": 0.336}
{"BINDER": "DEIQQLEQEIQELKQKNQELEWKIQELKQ [4H118-bN]", "interaction score": -0.336}
